test: Half life in Sprague-Dawley rat plasma at 27.5 mg/kg, ip by UPLC analysis; format: ADME, organism-based

{"smiles": "CCCCCCCC/C=C\\CCCCCCCC(=O)N[C@H](CCCCN)C(=O)O.Cl", "half-life / h": 10}

###

biological target: Sodium- and chloride-dependent glycine transporter 1 (Homo sapiens, UniProt P48067); assay: Inhibition of recombinant human GlyT1b expressed in Xenopus laevis oocytes assessed as reduction in channel current by two-electrode voltage clamp electrophysiology; type: cell-based
Sequence (P48067 whole entry): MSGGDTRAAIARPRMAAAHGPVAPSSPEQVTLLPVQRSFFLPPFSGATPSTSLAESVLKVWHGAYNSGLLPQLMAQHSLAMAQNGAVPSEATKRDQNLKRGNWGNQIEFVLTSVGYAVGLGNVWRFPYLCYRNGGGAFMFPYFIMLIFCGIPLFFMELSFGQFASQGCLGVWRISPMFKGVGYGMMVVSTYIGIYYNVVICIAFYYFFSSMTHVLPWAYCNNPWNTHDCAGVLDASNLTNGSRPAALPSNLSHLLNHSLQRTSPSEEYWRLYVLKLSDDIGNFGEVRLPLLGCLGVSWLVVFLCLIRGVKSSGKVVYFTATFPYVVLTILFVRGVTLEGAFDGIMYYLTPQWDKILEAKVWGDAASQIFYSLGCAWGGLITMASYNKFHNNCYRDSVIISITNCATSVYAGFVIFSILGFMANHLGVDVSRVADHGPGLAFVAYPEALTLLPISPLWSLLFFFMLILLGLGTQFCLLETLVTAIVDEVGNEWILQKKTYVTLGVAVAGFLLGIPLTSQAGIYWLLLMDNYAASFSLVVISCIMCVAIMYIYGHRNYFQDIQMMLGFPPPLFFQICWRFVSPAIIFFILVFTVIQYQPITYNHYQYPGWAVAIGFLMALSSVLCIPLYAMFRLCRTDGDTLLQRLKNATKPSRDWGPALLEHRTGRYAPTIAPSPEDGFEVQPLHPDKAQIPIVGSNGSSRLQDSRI
pIC50: −log10 of the molar value.
# key: entry, value: pIC50
measurement name: pIC50

{"smiles": "CCCCCCCC/C=C\\CCCCCCCC(=O)NCC(=O)O", "observed result": "< 4.52"}
{"smiles": "CCCCCCCC/C=C\\CCCCCCCC(=O)N[C@@H](C(=O)O)C(C)C", "observed result": "< 4.52"}
{"smiles": "CCCCCCCC/C=C\\CCCCCCCC(=O)N[C@@H](CCCCN)C(=O)O.Cl", "observed result": "< 5.52"}
{"smiles": "CCCCCCCC/C=C\\CCCCCCCC(=O)NCCCCCN", "observed result": "< 5.52"}
{"smiles": "CCCCCCCC/C=C\\CCCCCCCC(=O)N[C@H](Cc1cnc[nH]1)C(=O)O", "observed result": "< 5.52"}
{"smiles": "CCCCCCCC/C=C\\CCCCCCCC(=O)N[C@@H](CCCNC(=N)N)C(=O)O", "observed result": "< 5.52"}
{"smiles": "CCCCCCCC/C=C\\CCCCCCCC(=O)N[C@@H](CC(N)=O)C(=O)O", "observed result": "< 5.00"}
{"smiles": "CCCCCCCC/C=C\\CCCCCCCC(=O)N[C@H](CC(=O)O)C(=O)O", "observed result": "< 5.00"}
{"smiles": "CCCCCCCC/C=C\\CCCCCCCC(=O)N[C@@H](CCc1ccccc1)C(=O)O", "observed result": "< 5.00"}
{"smiles": "CCCCCCCC/C=C\\CCCCCCCC(=O)N[C@H](Cc1ccccc1)C(=O)O", "observed result": "< 5.00"}
